# TGT: Tumour suppressor p53/oncoprotein Mdm2 (Homo sapiens, UniProt Q00987)
# Sequence (P04637 whole entry, the tested form may be a part): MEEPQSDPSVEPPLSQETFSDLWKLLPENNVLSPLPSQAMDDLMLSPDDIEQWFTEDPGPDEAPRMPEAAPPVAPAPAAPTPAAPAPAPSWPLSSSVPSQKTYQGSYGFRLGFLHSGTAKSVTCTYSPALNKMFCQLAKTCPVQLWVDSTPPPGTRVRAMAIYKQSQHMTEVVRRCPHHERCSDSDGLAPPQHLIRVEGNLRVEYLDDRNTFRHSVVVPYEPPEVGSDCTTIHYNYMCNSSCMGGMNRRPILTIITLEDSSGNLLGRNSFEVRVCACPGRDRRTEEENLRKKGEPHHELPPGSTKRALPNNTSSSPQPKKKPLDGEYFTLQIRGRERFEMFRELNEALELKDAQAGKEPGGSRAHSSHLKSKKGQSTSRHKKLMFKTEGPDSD
# Sequence (Q00987 whole entry, the tested form may be a part): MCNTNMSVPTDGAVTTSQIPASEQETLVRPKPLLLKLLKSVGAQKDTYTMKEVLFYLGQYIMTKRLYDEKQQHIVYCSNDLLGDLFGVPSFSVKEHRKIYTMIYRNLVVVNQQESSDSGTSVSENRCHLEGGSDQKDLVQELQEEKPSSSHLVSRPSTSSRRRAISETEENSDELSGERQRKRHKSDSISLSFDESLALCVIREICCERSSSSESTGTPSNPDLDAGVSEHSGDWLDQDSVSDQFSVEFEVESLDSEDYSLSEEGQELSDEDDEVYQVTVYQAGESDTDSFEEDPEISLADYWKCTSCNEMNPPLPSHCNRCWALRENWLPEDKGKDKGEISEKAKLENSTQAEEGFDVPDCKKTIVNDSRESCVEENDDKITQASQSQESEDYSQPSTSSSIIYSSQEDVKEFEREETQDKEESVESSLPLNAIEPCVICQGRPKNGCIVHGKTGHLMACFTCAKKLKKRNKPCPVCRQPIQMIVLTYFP
# PROTOCOL DETAILS: Inhibition of p53-MDM2 (1 to 118 residues) interaction (unknown origin) expressed in Escherichia coli BL-21 (DE3) assessed as inhibition of MDM2 binding by fluorescence polarization competitive binding assay
So I've got a bunch of molecules here, and I need their pIC50 values.
One number for each entry, as −log10 of the molar value.

Consider "Nc1sc(-c2ccc(Cl)cc2)c(-c2ccc(Cl)cc2)c1C(=O)N1CCCC1" . Its measured pIC50 is 5.55

Consider "Nc1sc(-c2ccc(Cl)cc2)c(-c2ccc(Cl)cc2)c1C(=O)NC1CC1" . Its measured pIC50 is 5.68

Consider "Nc1sc(-c2ccc(Cl)cc2)c(-c2ccc(Cl)cc2)c1C(=O)NC1CCCCC1" . Its measured pIC50 is 6.05

As a next step, examine the molecule that follows.
Consider "COC(=O)c1c(N)sc(-c2ccc(Cl)cc2)c1-c1ccc(Cl)cc1" . Its measured pIC50 is 5.37
